- System: YAP/TAZ-TEAD transcription
- experiment.summary: Reporter gene assay for measuring the inhibition of YAP/TAZ-TEAD transcription (TEAD-responsive element luciferase reporter in Hek293T cells)
- Format: cell-based
- measurement.conditions: Homo sapiens, HEK-293T; Hek293T cells transfected with TEAD-responsive element luciferase reporter, 24 hours incubation
reported.property: EC50

These recorded examples may help you get a feel for the data.
O=C1NCN(c2ccc(C(F)(F)F)cc2)c2ccccc21; 1 to 20 µM
O=C(O)CN1CN(c2ccc(C(F)(F)F)cc2)c2ccccc2C1=O; 1 to 20 µM
C=CC(=O)NC1CN(c2ccccc2)c2ccccc2C1=O (stereo not shown); 1 to 20 µM

Input line: Identify the reported EC50 for the following entry. O=C1c2ccccc2N(c2ccc(C(F)(F)F)cc2)CN1CCCO
Output line: 1 to 20 µM

Input line: Identify the reported EC50 for the following entry. O=C1c2ccccc2N(c2ccc(C(F)(F)F)cc2)CN1CCO
Output line: 1 to 20 µM

Input line: Identify the reported EC50 for the following entry. CNC(=O)CN1CN(c2ccc(C(F)(F)F)cc2)c2ccccc2C1=O
Output line: > 20 µM

Input line: Identify the reported EC50 for the following entry. NC(=O)CN1CN(c2ccc(C(F)(F)F)cc2)c2ccccc2C1=O
Output line: > 20 µM
